Values from ChEMBL document CHEMBL1128408

Test system: Plasmodium falciparum
protocol.text: In vitro inhibitory activity against Chloroquine-sensitive Plasmodium falciparum NF54 as [3H]hypoxanthine incorporation
Format: functional, organism-based
condition.notes: Plasmodium falciparum; read-out: IC50
assay.metric: log10(IC50) (log10 of the value in mg/L)
Values are log10 of IC50 in mg/L.

What measured log10(IC50) goes with `CO[C@H]1O[C@@]2(C)CC[C@H]3CCCC[C@]31OO2` ?
-0.66

Would you kindly share the measured log10(IC50) for `CO[C@H]1O[C@]2(C)OO[C@]13CCCC[C@@H]3C[C@H]2c1ccccc1` ?
-0.21

***
Entry `CO[C@H]1O[C@]2(C)OO[C@]13[C@H](CCO)CCC[C@@H]3C[C@H]2C` has what log10(IC50)?
-2.66

Reported log10(IC50) for `CO[C@H]1O[C@]2(C)OO[C@]13[C@H](CCO)CCC[C@@H]3C[C@H]2Cc1ccccc1` : what is it?
-2.52

Name the recorded log10(IC50) for C[C@@H]1CC[C@H]2[C@@H](C)C(=O)O[C@@H]3O[C@@]4(C)CC[C@@H]1[C@]32OO4 [ARTEMISININ] .
-2.52

Report log10(IC50) for `CO[C@H]1O[C@]2(C)OO[C@]13[C@H](CCO)CCC[C@@H]3C[C@@H]2C` please.
-0.44

Entry `CO[C@H]1O[C@]2(C)OO[C@]13[C@H](CCO)CCC[C@@H]3C[C@@H]2Cc1ccccc1` has what log10(IC50)?
-0.22

Sample `CO[C@H]1O[C@@]2(C)CC[C@H]3CCC[C@@H](CCO)[C@]31OO2` — what was its log10(IC50)?
-1.47

What value of log10(IC50) has been reported for the following molecule? `CO[C@H]1O[C@]2(C)OO[C@]13[C@H](CCO)CCC[C@@H]3C[C@H]2C[Si](C)(C)C`
-1.07

Returns the measured log10(IC50) for the input molecule. Input: `CO[C@H]1O[C@]2(C)OO[C@]13CCCC[C@@H]3C[C@H]2Cc1ccccc1`
-1.01
